- assayed system: 5-hydroxytryptamine receptor 1A (Rattus norvegicus)
- Sequence (P19327 whole entry): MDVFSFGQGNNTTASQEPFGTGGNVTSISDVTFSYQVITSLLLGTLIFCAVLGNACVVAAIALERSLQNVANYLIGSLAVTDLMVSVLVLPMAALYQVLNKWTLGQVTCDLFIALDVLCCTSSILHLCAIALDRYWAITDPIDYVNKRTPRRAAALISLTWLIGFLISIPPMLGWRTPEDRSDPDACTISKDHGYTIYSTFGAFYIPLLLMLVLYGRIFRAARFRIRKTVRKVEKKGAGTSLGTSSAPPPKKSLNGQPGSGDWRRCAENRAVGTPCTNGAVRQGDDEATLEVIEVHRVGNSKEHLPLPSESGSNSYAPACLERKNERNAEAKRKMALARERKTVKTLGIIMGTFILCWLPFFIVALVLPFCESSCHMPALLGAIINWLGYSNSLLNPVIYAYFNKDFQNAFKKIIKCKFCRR
- procedure summary: Antagonist activity against rat hippocampal tissue 5-hydroxytryptamine 1A receptor
- Format: functional, tissue-based, Hippocampus
metric: Ki (nM)
One number for each entry, in nM.

Answered examples (3):
[
  {
    "compound string": "COc1ccccc1N1CCN(CCNC(=O)C23C[C@H]4C[C@@H](C2)C[C@@H](C3)C4)CC1.Cl.Cl",
    "Ki, nM": 1
  },
  {
    "compound string": "O=C(N[C@H](Cc1ccccc1)CN1CCN(c2ncccn2)CC1)C12C[C@H]3C[C@@H](C1)C[C@@H](C2)C3",
    "Ki, nM": 0.43
  },
  {
    "compound string": "Cl.Cl.O=C(NCCN1CCN(c2ncccn2)CC1)C12CC3CC(CC1C3)C2",
    "Ki, nM": 2.4
  }
]

q: State the recorded Ki for this entry: "C[C@H](CN1CCN(Cc2ccccc2)CC1)NC(=O)C12C[C@H]3C[C@@H](C1)C[C@@H](C2)C3"
a: 37

====

Would you kindly list log10(Ki) for each of these molecules?
- assayed system: Serotonin 2 (5-HT2) receptor (Rattus norvegicus, UniProt P30994+P08909+P14842)
- procedure summary: Inhibitory activity against rat cortical 5-hydroxytryptamine 2 receptor
- Format: protein assay
Values are log10 of Ki in nM.

Answered examples (5):
[
  {
    "compound string": "Cl.Cl.O=C(NCCCN1CCN(c2cccc(Cl)c2)CC1)NC12C[C@H]3C[C@@H](C1)C[C@@H](C2)C3",
    "assayed system": "Serotonin 2 (5-HT2) receptor (Rattus norvegicus, UniProt P30994+P08909+P14842)",
    "metric": "log10(Ki)",
    "reported result": 2.44
  },
  {
    "compound string": "COc1ccccc1N1CCN(CCOC(=O)C23C[C@H]4C[C@@H](C2)C[C@@H](C3)C4)CC1.Cl.Cl",
    "assayed system": "Serotonin 2 (5-HT2) receptor (Rattus norvegicus, UniProt P30994+P08909+P14842)",
    "metric": "log10(Ki)",
    "reported result": 2.85
  },
  {
    "compound string": "Cl.Cl.O=C(NCCN1CCN(c2ncccn2)CC1)C12C[C@H]3C[C@@H](C1)C[C@@H](C2)C3",
    "assayed system": "Serotonin 2 (5-HT2) receptor (Rattus norvegicus, UniProt P30994+P08909+P14842)",
    "metric": "log10(Ki)",
    "reported result": 1.86
  },
  {
    "compound string": "Cl.Cl.O=C(NCCCN1CCN(c2ncccn2)CC1)C12CC3CC(CC1C3)C2",
    "assayed system": "Serotonin 2 (5-HT2) receptor (Rattus norvegicus, UniProt P30994+P08909+P14842)",
    "metric": "log10(Ki)",
    "reported result": 2.46
  },
  {
    "compound string": "COc1ccccc1N1CCN(CCCNC(=O)C23C[C@H]4C[C@@H](C2)C[C@@H](C3)C4)CC1.Cl.Cl",
    "assayed system": "Serotonin 2 (5-HT2) receptor (Rattus norvegicus, UniProt P30994+P08909+P14842)",
    "metric": "log10(Ki)",
    "reported result": 1.88
  }
]

# map each molecule to its log10(Ki)
1. O=C(N[C@@H](Cc1ccccc1)CN1CCN(c2ncccn2)CC1)C12C[C@H]3C[C@@H](C1)C[C@@H](C2)C3
2. Cl.Cl.O=C(N[C@H](Cc1ccccc1)CN1CCN(Cc2ccccc2)CC1)C12C[C@H]3C[C@@H](C1)C[C@@H](C2)C3
3. Cl.Cl.O=C(NCCCN1CCN(c2ncccn2)CC1)C12C[C@H]3C[C@@H](C1)C[C@@H](C2)C3

a:
1. 3.13
2. 2.86
3. 1.32

====

- assayed system: 5-hydroxytryptamine receptor 1A (Rattus norvegicus, UniProt P19327)
- procedure summary: Antagonist activity against rat hippocampal tissue 5-hydroxytryptamine 1A receptor
- Type: functional, tissue-based, Hippocampus
metric: Ki (nM)
Answers are plain numbers, in nM.

Answered examples (6):
[
  {
    "compound string": "CC(C)(CN1CCN(c2ncccn2)CC1)NC(=O)C12C[C@H]3C[C@@H](C1)C[C@@H](C2)C3",
    "units symbol": "nM",
    "Ki": 127
  },
  {
    "compound string": "COc1ccccc1N1CCN(CCCNC(=O)NC23C[C@H]4C[C@@H](C2)C[C@@H](C3)C4)CC1.Cl.Cl",
    "units symbol": "nM",
    "Ki": 1
  },
  {
    "compound string": "Cl.Cl.O=C(NCCCN1CCN(c2cccc(Cl)c2)CC1)NC12C[C@H]3C[C@@H](C1)C[C@@H](C2)C3",
    "units symbol": "nM",
    "Ki": 45
  },
  {
    "compound string": "COc1ccccc1N1CCN(CCNC(=O)NC23C[C@H]4C[C@@H](C2)C[C@@H](C3)C4)CC1",
    "units symbol": "nM",
    "Ki": 9
  },
  {
    "compound string": "Cl.Cl.O=C(OCCN1CCN(c2ncccn2)CC1)C12C[C@H]3C[C@@H](C1)C[C@@H](C2)C3",
    "units symbol": "nM",
    "Ki": 8.5
  },
  {
    "compound string": "O=C(NCCCN1CCN(c2cccc(Cl)c2)CC1)C12C[C@H]3C[C@@H](C1)C[C@@H](C2)C3",
    "units symbol": "nM",
    "Ki": 19
  }
]

q: State the recorded Ki for this entry: "COc1ccccc1N1CCN(C[C@@H](C)NC(=O)C23C[C@H]4C[C@@H](C2)C[C@@H](C3)C4)CC1"
a: 0.22

====

- assayed system: Serotonin 2 (5-HT2) receptor (Rattus norvegicus, UniProt P30994+P08909+P14842)
- procedure summary: Inhibitory activity against rat cortical 5-hydroxytryptamine 2 receptor
- Type: protein assay
metric: Ki
Express the reported value numerically, then name its unit.

Answered examples (3):
[
  {
    "compound string": "Cl.Cl.O=C(N[C@@H](Cc1ccccc1)CN1CCN(Cc2ccccc2)CC1)C12C[C@H]3C[C@@H](C1)C[C@@H](C2)C3",
    "reported result": "1890 nM"
  },
  {
    "compound string": "COc1ccccc1N1CCN(CCC(=O)NC23C[C@H]4C[C@@H](C2)C[C@@H](C3)C4)CC1.Cl.Cl",
    "reported result": "77 nM"
  },
  {
    "compound string": "Cl.Cl.O=C(NCCN1CCN(c2ncccn2)CC1)C12CC3CC(CC1C3)C2",
    "reported result": "262 nM"
  }
]

# map each compound to its Ki
1. Cl.Cl.O=C(OCCN1CCN(c2ncccn2)CC1)C12C[C@H]3C[C@@H](C1)C[C@@H](C2)C3
2. Cl.Cl.O=C(NCCCN1CCN(c2cccc(Cl)c2)CC1)C12CC3CC(CC1C3)C2
3. COc1ccccc1N1CCN(CCCOC(=O)C23C[C@H]4C[C@@H](C2)C[C@@H](C3)C4)CC1.Cl.Cl
4. O=C(N[C@H](Cc1ccccc1)CN1CCN(c2ncccn2)CC1)C12C[C@H]3C[C@@H](C1)C[C@@H](C2)C3

a:
2180 nM
4.3 nM
180 nM
395 nM

====

Would you kindly list inhibition for each of these compounds?
- assayed system: D(2) dopamine receptor (Rattus norvegicus)
- procedure summary: Inhibitory activity against Dopamine receptor D2 of rat limbic tissue at 1 uM
- Format: tissue-based
- settings: Limbic system
Express the reported value numerically, then name its unit.

Answered examples (3):
[
  {
    "compound string": "Cl.Cl.O=C(NCCCN1CCN(c2ncccn2)CC1)C12C[C@H]3C[C@@H](C1)C[C@@H](C2)C3",
    "metric": "inhibition",
    "reported result": "6%"
  },
  {
    "compound string": "O=C(NC12C[C@H]3C[C@@H](C1)C[C@@H](C2)C3)OCCN1CCN(c2cccc(Cl)c2)CC1",
    "metric": "inhibition",
    "reported result": "36%"
  },
  {
    "compound string": "Cl.Cl.O=C(NCCCN1CCN(c2ncccn2)CC1)C12CC3CC(CC1C3)C2",
    "metric": "inhibition",
    "reported result": "27%"
  }
]

Query compound follows.
q: State the recorded inhibition for this entry: "O=C(NCCN1CCN(c2cccc(C(F)(F)F)c2)CC1)C12CC3CC(CC1C3)C2"
a: 73%
